System: NCI-H322M lung
Assay: NCI-60 one-dose screen, 48 h (100 = growth as untreated, 0 = no growth, -100 = all killed)
Settings: 10 µM unless noted
This is part of a sample that, as a whole, favours compounds with a hit. Of some 83,000 tested, about 20% had one in any assay.
# Lookup of reported growth keyed by entry
Report the figure in % without appending any unit label.

Compound: COc1ccc2[nH]cc(-c3csc4nc(-c5ccccc5)cn34)c2c1
Unit Of Measure: %
Reported Value: 64.6
//
Compound: CCCn1cnc2c(c1=N)C(c1ccc(F)cc1)c1sc3c(CC)cccc3c1O2 (stereo not given)
Unit Of Measure: %
Reported Value: 52
//
Compound: O=C(CCn1c[n+](CC(=O)c2ccc(F)cc2)c2ccccc21)Nc1cccc2cccnc12
Unit Of Measure: %
Reported Value: 93.9
//
Compound: COc1cc(-c2nc3sccn3c2-c2ccnc(S(C)(=O)=O)n2)ccc1F
Unit Of Measure: %
Reported Value: 89.3

Consider the compound shown here: CC(=O)C1=C(C)NC(NN)=NC1c1cccc(Cl)c1 (stereo not given) What is its recorded growth? 96.7

====

Tested on: SF-268 CNS
Test: NCI-60 one-dose screen, 48 h (100 = growth as untreated, 0 = no growth, -100 = all killed)
Settings: 10 µM unless noted
The panel holds about 83,000 compounds, 20% with a hit somewhere; the sample as a whole holds those more often.
# Lookup of reported growth keyed by entry
Report the figure in % without appending any unit label.

Compound: COc1cc(/C=C/C(=O)c2ccc(NC(=O)CSc3nnc(-c4ccc(-c5nc6ccc(Cl)cc6[nH]5)cc4)o3)cc2)cc(OC)c1OC
growth (%): 91.8

Consider the compound shown here: COc1ccccc1-n1cc(C#N)c(N)c1C(=O)c1ccc(Cl)cc1 What is its recorded growth? 85.2

Consider the compound shown here: Nc1cc(F)ccc1NC(=O)c1ccc(NC(=O)C/C=C/c2cccnc2)cc1 What is its recorded growth? 53.7

Consider the compound shown here: CNC(=O)c1cc(Oc2ccc3nc(NC(=O)c4ccc(N5CCOCC5)c(C(F)(F)F)c4)sc3c2)ccn1 What is its recorded growth? 92.8

Consider the compound shown here: N/C(=N\C(N)=N\c1nc2ccccc2s1)c1ccncc1Cl What is its recorded growth? 52.6

Consider the compound shown here: NS(=O)(=O)c1ccc(Nc2nc(N/N=C/c3c[nH]c4ccccc34)nc(Nc3ccccc3)n2)cc1 What is its recorded growth? 59.2

Consider the compound shown here: O=C(NNc1nc2cc(F)c(F)cc2n2c(CN3CC4CNCC4C3)ccc12)c1cnccn1 (stereo unspecified) What is its recorded growth? 15.8

Consider the compound shown here: COc1cc(OC)cc(C(=O)Nc2cccc(C#Cc3cccc4[nH]nc(N)c34)c2)c1 What is its recorded growth? 33

Consider the compound shown here: Cc1cc(C)cc(C(=O)Nc2cccc(C#Cc3cccc4[nH]nc(N)c34)c2)c1 What is its recorded growth? 55

Consider the compound shown here: COc1ccc(N2CCN(C3=C(Cl)C(=O)C(C)=C(C)C3=O)CC2)cc1 What is its recorded growth? 105

Consider the compound shown here: CCN(CC)c1ccc(NC2=C(Cl)C(=O)c3nc(C)ccc3C2=O)cc1 What is its recorded growth? 90.8

====

Test system: OVCAR-3 ovarian
Assay: NCI-60 one-dose screen, 48 h
Settings: 10 µM unless noted
The panel holds about 83,000 compounds, 20% with a hit somewhere; the sample as a whole holds those more often. The source made the active and inactive calls. The calls were made as follows: active = growth percent below 10; inactive = the rest.
A correct response names exactly one class from active, inactive

Please review the entries below; each comes with its answer.
Compound: C#C[C@]1(O)CC[C@H]2[C@@H]3CC=C4c5sc(-c6ccc7c(c6)OCO7)nc5CC[C@]4(C)[C@H]3CC[C@@]21C
Cat: active
//
Compound: Cc1c(F)cc(C(N)=O)cc1NCC(=O)Nc1ccc([N+](=O)[O-])cc1
Cat: inactive
//
Compound: O=C(CSc1nnc(-c2ccc3nc(-c4ccccc4)[nH]c3c2)o1)Nc1ccc(C(=O)/C=C/c2ccccc2)cc1
Cat: inactive

Outcome logged for CCn1c(SCC(=O)Nc2cccc(C(=O)/C=C/c3cc(OC)c(OC)c(OC)c3)c2)nc2ccccc2c1=O in this assay: inactive

Outcome logged for NS(=O)(=O)c1ccc(Nc2nc(N/N=C/CCc3ccccc3)nc(Nc3ccccc3)n2)cc1 in this assay: inactive

Outcome logged for CS(=O)(=O)Nc1cc(-c2ccc3ncc(C#N)c(NCc4ccccc4O)c3c2)cnc1Cl in this assay: active

Outcome logged for Nc1nc(Nc2ccccc2SSc2ccccc2Nc2nc(N)nc(-c3ccc4ccccc4c3)n2)nc(-c2ccc3ccccc3c2)n1 in this assay: inactive

Outcome logged for O=C1CCCc2nc(Nc3ccc(S(=O)(=O)Nc4ccc([N+](=O)[O-])cc4)cc3)ncc21 in this assay: inactive

Outcome logged for O=C(Nc1cccc(Cl)c1)Nc1nc2ccc([N+](=O)[O-])cc2o1 in this assay: active

Data origin: PubChem BioAssay (NCI)
